ASSAY_REMARKS: Cytotoxicity against HUVEC assessed as cell viability at 50 uM measured after 24 hrs by celltiter-blue assay
Assay type: cell-based
TEST_SETTINGS: human, HUVEC cells; read-out: Activity
QUANTITY: viability at 24 h, 50 µM (%)
Value expressed in %; do not type the unit.

Determine from records and report viability at 24 h, 50 µM for `CS(=O)(=O)c1ccc(C(CCCCO[N+](=O)[O-])=C(c2ccc(F)cc2)c2ccc(F)cc2)cc1`
91.1

---

Tested on: A2058
ASSAY_REMARKS: Antiproliferative activity against human A2058 cells assessed as cell viability at 50 uM measured after 24 hrs by celltiter-blue assay relative to control
Assay type: functional
TEST_SETTINGS: A2058, 24 h, read-out: Activity
Exercise: for every item that follows, state its recorded viability at 50 µM.
Value expressed in %; do not type the unit.

Determine from records and report viability at 50 µM for `CS(=O)(=O)c1ccc(C(CCCCO[N+](=O)[O-])=C(c2ccc(F)cc2)c2ccc(F)cc2)cc1`
106

Determine from records and report viability at 50 µM for `CS(=O)(=O)c1ccc(C(CCCO)=C(c2ccccc2)c2ccccc2)cc1`
63

Determine from records and report viability at 50 µM for `CS(=O)(=O)c1ccc(C(CCCCO[N+](=O)[O-])=C(c2ccccc2)c2ccccc2)cc1`
120

Determine from records and report viability at 50 µM for `CS(=O)(=O)c1ccc(C(CCCCO)=C(c2ccc(F)cc2)c2ccc(F)cc2)cc1`
17

Determine from records and report viability at 50 µM for `CC/C(=C(\c1ccccc1)c1ccc(OCCN(C)C)cc1)c1ccccc1`
1.8

Determine from records and report viability at 50 µM for `CS(=O)(=O)c1ccc(C(CCCO[N+](=O)[O-])=C(c2ccc(F)cc2)c2ccc(F)cc2)cc1`
107

Determine from records and report viability at 50 µM for `CCCCC(=C(c1ccc(F)cc1)c1ccc(F)cc1)c1ccc(S(C)(=O)=O)cc1`
117

Determine from records and report viability at 50 µM for `CS(=O)(=O)c1ccc(C(CCCO)=C(c2ccc(F)cc2)c2ccc(F)cc2)cc1`
47.6

Determine from records and report viability at 50 µM for `CS(=O)(=O)c1ccc(C(CCCO[N+](=O)[O-])=C(c2ccccc2)c2ccccc2)cc1`
117

Determine from records and report viability at 50 µM for `CS(=O)(=O)c1ccc(C(CCCCO)=C(c2ccccc2)c2ccccc2)cc1`
106
